Source: paper PMC10397247

Molecular target: T1, 4H454-bA
T1 chain: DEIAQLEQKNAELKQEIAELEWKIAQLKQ
Assay: two-hybrid library CCNG1;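 note: natural log of median RNA to DNA barcode read ratio; higher means stronger binding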
observation.type: interaction score

Sample records with interaction score:
{"binder": "DEIAQLEQKNAELKQEIAELEWKIAQLKQ [4H454-bA]", "interaction score": 1.86}
{"binder": "DKNAQLKQKNAELEQKIAELEWEIAQLEQ [4H4001-bA]", "interaction score": 1.01}
{"binder": "DENAQLKQKIAELEQKIAELEWENAQLKQ [4H1828-bA]", "interaction score": -1.06}
{"binder": "DKNAQLKQKIAELEQEIAELKWKNAQLEQ [4H3855-bA]", "interaction score": -0.709}

(A) DKNAQLEQEIAELEQKIAELEWKNAQLKQ [4H3112-bA]
(B) DENAQLEQKNAELEQKIAELEWKIAQLKQ [4H1446-bA]
(C) DKIAQLEQKNAELEQEIAELKWEIAQLKQ [4H2442-bA]
-- ask Rank descending by interaction score. Give the labels in the order requested.
-- reply C, B, A
